# measurement-description: inhibitors of the yeast RAM network, pilot screen, dse1pr::URA3 reporter, 5-FOA selection (AID 869);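 note: 0% = DMSO wells with no growth and 100% = 10 µM 1-NA-PP1 with full growth; RAM network block rescues cells from 5-FOA so hits raise OD615 growth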
# assay-conditions: S. cerevisiae dse1pr::URA3 5-FOA growth, OD615, 2 d; at 10 µM; stronger effect = higher value; strain carries analog-sensitive mutant Cbk1 kinase
So basically: inhibition at 1% or higher? That is Fulfilled. Lower than 1%? That is Not fulfilled.

| molecule | answer-label |
| --- | --- |
| COc1ccc(C2=NOC(C(=O)Nc3c(C)n(C)n(-c4ccccc4)c3=O)C2)cc1OC (stereo unspecified) | Not fulfilled |

Task item: In plain terms: is recorded inhibition at least 1% for COc1ccc(C2C(C#N)=C(N)Oc3n[nH]c(C)c32)cc1Cn1nnc2ccccc21 (stereo unspecified) ?
Reply: Fulfilled

----------
inhibition listing for selected molecules.
# measurement-description: growth suppression of yeast trafficking mutant, preliminary HTS, modulators of trafficking downstream of Golgi apparatus project, 1536-format plate, OD 615 nm (AID 637)
# assay-conditions: yeast transport mutant growth, absorbance 615 nm, 18 h; stronger effect = higher value
API: value field is a number in %; no unit string.

| molecule | inhibition / % |
| --- | --- |
| CCOC(=O)CSc1nc2sc(C)c(C)c2c(=O)n1C | -0.17 |
| O=C(NCC(c1cccnc1)N1CCN(c2ccccc2)CC1)c1ccc2c(c1)OCO2 (stereo unspecified) | 12.9 |
| CCOc1cc(N2CCOCC2)c(OCC)cc1NC(=O)COC(=O)CCc1c[nH]c2ccccc12 | -8.83 |
| CCC(=O)N1CCc2cc(Br)cc(S(=O)(=O)N3CCCCCC3)c21 | 4.91 |
| CCOC(=O)c1c(C)oc2ccc(OCC(N)=O)cc12 | -5.4 |
| C=CCn1c(SCC(=O)NC23CC4CC(CC(C4)C2)C3)nc(O)cc1=O | -0.48 |
| CCOC(=O)c1[nH]c(C)c(C(=O)NCc2ccccn2)c1C | 9.37 |
| COc1cccc(NC(=O)Cc2nnc(SCC(=O)c3ccccc3)n2C)c1 | -3.49 |

Task item: Entry under review: O=C1CC(c2ccc(S(=O)(=O)N3CCN(c4ccccc4)CC3)cc2)CN1 (stereo unspecified) . Reported inhibition?
Reply: -10

Task item: Then this molecule: CC(C)Cn1c(N)c(C(=O)COC(=O)c2ccc3c(c2)OCCO3)c(=O)n(C)c1=O
Reply: 0.16

Task item: Then this molecule: O=C(c1ccccc1Br)N1CCN(c2ccccc2)CC1
Reply: -4.76

----------
viability listing for selected compounds.
# measurement-description: reducers of endogenous Her2 protein level, primary screen, SKBR3 breast tumor cells, AlphaScreen, ATP viability (AID 461);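 for viability: percent of carrier control wells set as 100% viability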
# assay-conditions: 18-24 h, measured here: SKBR3 viability, ATP luminescence, at 10 µM
API: value field is a number in %; no unit string.

Solved entries (count: 10):
| compound | viability / % |
| --- | --- |
| COc1cc(C(=O)OCC(=O)N(C)Cc2ccccc2)cc(OC)c1OC | 106 |
| O=C(CCn1c(=O)sc2ccccc21)Nc1nccs1 | 98.5 |
| COc1ccc(C)cc1S(=O)(=O)N1CCN(Cc2ccccc2)CC1 | 98 |
| CC[N+](C)(CC)CCOC(=O)C(O)(c1ccccc1)C1CCCCC1 (stereo unspecified) | 91.5 |
| Cc1ccc(S(=O)(=O)N2CCOCC2)cc1C(=O)Nc1ccccn1 | 87 |
| O=C(CS(=O)(=O)c1cn(Cc2ccc(Cl)cc2)c2ccccc12)N1CCCC1 | 81.5 |
| CN(C)S(=O)(=O)NC(c1ccccc1)c1ccccc1 | 93 |
| Cc1ccc(-c2nn(C)c(=O)c3ccccc23)cc1S(=O)(=O)NCCN1CCOCC1 | 87 |
| CCOC(=O)CC12CN3CN(C1)CC(CC(=O)OCC)(C3)C2=O | 94 |
| CCOc1ccc(N2C(N)=NC(N)=NC2(C)C)cc1 | 92.5 |

Task item: Entry under review: CCCCNC(=O)CN(C1CCCCC1)S(C)(=O)=O . Reported viability?
Reply: 104

Task item: Then this compound: O=C(Nc1ccccc1C(F)(F)F)c1cc(S(=O)(=O)N2CCOCC2)ccc1F
Reply: 96.5

Task item: Then this compound: COc1ccc2c(c1)Sc1ccccc1N2CCN(C)C
Reply: 88.5

Task item: Then this compound: C=CCn1c(C)cc(C(=O)CSc2nc3ccccc3c(=O)[nH]2)c1C
Reply: 90.5

Task item: Then this compound: CCOC(=O)C1CCCN(C(=O)c2cc3c(=O)n4cccc(C)c4nc3n2C)C1 (stereo unspecified)
Reply: 106

Task item: Then this compound: CC(=O)Nc1ccc(S(=O)(=O)Nc2nc3ccccc3nc2N2CCCC2)cc1
Reply: 99.5

Task item: Then this compound: CN(C(=O)C(Cl)Cl)c1ccc(OC(=O)c2ccco2)cc1
Reply: 130

Task item: Then this compound: Nc1ccc2[nH]ncc2c1
Reply: 80.5

Task item: Then this compound: CCOC(=O)C1CCCN(C(=O)c2ccc3c(=O)n(CCOC)c(=S)[nH]c3c2)C1 (stereo unspecified)
Reply: 94

Task item: Then this compound: CCOC(=O)N1CCN(C(=O)C2CC(=O)N(Cc3ccc(OC)cc3)C2)CC1 (stereo unspecified)
Reply: 96.5

Task item: Then this compound: O=S1(=O)N=C(Nc2nc3c(s2)CCCC3)c2ccccc21
Reply: 82

Task item: Then this compound: O=C(COC(=O)C1CC(=O)N(c2ccccc2)C1)c1ccccc1 (stereo unspecified)
Reply: 99.5

Task item: Then this compound: O=C(Nc1ccccc1)N1C(=O)C2(OCCO2)c2ccccc21
Reply: 114

Task item: Then this compound: CCOC(=O)c1c(C)c(C(=O)NCC2CCCO2)c(C)n1C (stereo unspecified)
Reply: 100

Task item: Then this compound: Cc1ccc(C)c(NC(=O)c2ccc3c(c2)N(Cc2ccc(F)cc2)C(=O)CS3=O)c1 (stereo unspecified)
Reply: 85.5

----------
# assay-target: Receptor tyrosine-protein kinase erbB-2 (Homo sapiens) (UniProt P04626)
# Sequence (P04626 whole entry, looked up): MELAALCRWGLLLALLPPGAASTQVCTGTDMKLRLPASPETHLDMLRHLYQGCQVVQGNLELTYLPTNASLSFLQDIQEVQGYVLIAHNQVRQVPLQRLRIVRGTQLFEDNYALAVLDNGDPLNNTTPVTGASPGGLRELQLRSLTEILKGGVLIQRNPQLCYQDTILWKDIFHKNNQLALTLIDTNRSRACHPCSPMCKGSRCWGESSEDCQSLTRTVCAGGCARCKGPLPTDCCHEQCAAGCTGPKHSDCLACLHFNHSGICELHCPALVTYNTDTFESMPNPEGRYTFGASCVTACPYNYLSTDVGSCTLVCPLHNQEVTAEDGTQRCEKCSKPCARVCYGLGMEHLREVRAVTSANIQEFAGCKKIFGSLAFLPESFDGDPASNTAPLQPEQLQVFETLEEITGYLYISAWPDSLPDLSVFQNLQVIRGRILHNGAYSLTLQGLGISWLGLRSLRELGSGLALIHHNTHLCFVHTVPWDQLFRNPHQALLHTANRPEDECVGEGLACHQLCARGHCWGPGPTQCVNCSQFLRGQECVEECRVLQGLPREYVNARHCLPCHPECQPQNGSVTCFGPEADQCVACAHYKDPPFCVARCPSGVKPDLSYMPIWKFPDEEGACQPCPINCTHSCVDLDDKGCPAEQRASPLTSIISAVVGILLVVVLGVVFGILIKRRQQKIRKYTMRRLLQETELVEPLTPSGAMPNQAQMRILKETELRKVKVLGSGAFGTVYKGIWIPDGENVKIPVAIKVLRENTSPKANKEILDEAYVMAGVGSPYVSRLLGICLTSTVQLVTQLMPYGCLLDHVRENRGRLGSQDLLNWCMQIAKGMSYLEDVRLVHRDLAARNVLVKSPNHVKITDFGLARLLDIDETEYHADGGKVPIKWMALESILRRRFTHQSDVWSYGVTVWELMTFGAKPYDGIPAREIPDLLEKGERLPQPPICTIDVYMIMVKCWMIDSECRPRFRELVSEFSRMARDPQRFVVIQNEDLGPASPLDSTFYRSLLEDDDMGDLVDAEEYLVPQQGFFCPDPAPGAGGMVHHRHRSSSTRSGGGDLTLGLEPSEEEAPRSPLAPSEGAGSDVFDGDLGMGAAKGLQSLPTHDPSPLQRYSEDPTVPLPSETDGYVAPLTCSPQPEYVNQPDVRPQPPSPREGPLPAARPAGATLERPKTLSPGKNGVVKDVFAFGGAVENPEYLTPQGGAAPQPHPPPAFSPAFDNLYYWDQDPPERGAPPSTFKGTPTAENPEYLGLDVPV
# measurement-description: reducers of endogenous Her2 protein level, primary screen, SKBR3 breast tumor cells, AlphaScreen, ATP viability (AID 461);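 for viability: percent of carrier control wells set as 100% viability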
# assay-conditions: 18-24 h, at 10 µM
Activity calls are given as the source filed them.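 The calls were made as follows: active = Her2 level under about 52% in both replicate screens, with viability over 70% of control (limit read from the data); inconclusive = Her2 under the limit in one screen only, or viability under 70%; inactive = Her2 level above the set limit.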
Give one outcome, nothing more. List: true for active, false for inactive

| compound | assay-target | answer-label |
| --- | --- | --- |
| CCOC(=O)c1c(NC(=O)CSc2nnc(-c3cccnc3)o2)sc(C)c1C | Receptor tyrosine-protein kinase erbB-2 (Homo sapiens) (UniProt P04626) | false |

Task item: Any idea what this test logged for CCN(CC)c1ccc(NC(=O)CN2CCN(CC(=O)Nc3ccccc3F)CC2)cc1 ?
Reply: false

Task item: Then this compound: Cc1oc2c(CN3CCOCC3)c(O)ccc2c(=O)c1-c1ccc(Br)cc1
Reply: false

Task item: Then this compound: CCOC(=O)c1ccc(NC(=O)CCc2nc(-c3cccc(C)c3)no2)cc1
Reply: false

Task item: Then this compound: CCOC(=O)CSc1nnc(NC(=O)c2cccc(S(=O)(=O)N3CCCCC3)c2)s1
Reply: false

Task item: Then this compound: NC1=NC(c2ccc(Cl)cc2)n2c(nc3ccccc32)N1 (stereo unspecified)
Reply: false

----------
differential viability (reversal) listing for selected compounds.
# measurement-description: reversal of MRP1-mediated doxorubicin resistance, pilot screen, H69AR cells, doxorubicin co-treatment (AID 601)
# assay-conditions: H69AR cells + 2 uM doxorubicin, CellTiter-Glo, 72 h; at 10 µM; stronger effect = higher value
API: value field is a number in %; no unit string.

| compound | data-value |
| --- | --- |
| O=C(CCSc1nnc(-c2ccncc2)o1)Nc1ccccc1 | 10.3 |
| OC1C[N+]2(CCCCC2)C1 | 13 |
| CCc1nnc(NC(=O)NCN2C(=O)C3C4C=CC(C4)C3C2=O)s1 (centres undefined) | 1.7 |
| CCOC(=O)CNC(=O)CSc1nc(N)cc(N)n1 | 0.07 |
| COc1cc(N2C(=O)CSC23C(=O)Nc2ccccc23)cc(OC)c1OC (centres undefined) | 7.86 |

Task item: Entry under review: CC(=O)N1CCc2cc(S(=O)(=O)CCC(=O)N3CCN(c4ccccn4)CC3)ccc21 . Reported differential viability (reversal)?
Reply: 6.38

Task item: Then this compound: O=C(NCCCN1CCN(CCCNC(=O)c2ccc(F)cc2)CC1)c1ccc(F)cc1
Reply: 4.58

Task item: Then this compound: Cc1ccc(O)c(C(CC(=O)N2CCCC2)c2ccccc2)c1 (centres undefined)
Reply: 12.3

Task item: Then this compound: CCOc1nc(-c2ccccc2)ccc1-c1noc(-c2cccnc2)n1
Reply: 4.83

Task item: Then this compound: CO[C@@]1(NC(=O)CSCC#N)C(=O)N2C(C(=O)O)=C(CSc3nnnn3C)CS[C@@H]21
Reply: -5.77

Task item: Then this compound: Cc1ccc(-c2cc(C(=O)Nc3cc(C)ccc3C)[nH]n2)c(O)c1
Reply: 2.75

Task item: Then this compound: COCCSc1ccccc1C(=O)Nc1nncs1
Reply: 3.37
